tested on: Procathepsin L (Homo sapiens)
assay notes: Covalent/reversible inhibition of human liver cathepsin-L using Z-FR-AMC as substrate preincubated for 5 mins followed by substrate addition measured at 15 sec interval for 5 mins by Morrison's equation analysis
condition set: read-out: Ki(app)
Sequence (P07711 whole entry): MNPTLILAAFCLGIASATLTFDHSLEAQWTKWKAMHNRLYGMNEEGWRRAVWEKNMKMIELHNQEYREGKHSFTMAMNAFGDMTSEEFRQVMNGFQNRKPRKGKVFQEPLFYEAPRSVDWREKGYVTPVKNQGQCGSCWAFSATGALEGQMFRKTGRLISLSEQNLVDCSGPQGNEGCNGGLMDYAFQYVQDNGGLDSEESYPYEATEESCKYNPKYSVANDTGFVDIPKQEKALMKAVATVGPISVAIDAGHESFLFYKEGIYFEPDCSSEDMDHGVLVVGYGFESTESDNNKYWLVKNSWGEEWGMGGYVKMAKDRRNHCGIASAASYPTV
pKi: −log10 of the molar value.
measurement kind: pKi

A. NC(=S)N/N=C(\c1cccc(O)c1)c1cccc(Br)c1
B. NC(=S)N/N=C(\c1cccc(O)c1)c1cc(Br)cc(Br)c1
# min-compare on pKi between A and B Write the label of whichever entry you select.
B
(B: 8.08, A: 8.43)

====

assay notes: Aqueous solubility of the compound in water at 4 g by reversed phase column chromatography
Type: physicochemical
measurement kind: solubility

Recorded solubility of NC(=S)N/N=C(/c1cccc(Br)c1)c1cccc(OP(=O)([O-])[O-])c1.[Na+].[Na+] , please.
> 400 mg/mL

====

assay notes: Aqueous solubility of the compound in water at 2.02 mg by reversed phase column chromatography
Format: physicochemical
measurement kind: solubility

Recorded solubility of NC(=S)N/N=C(\c1cccc(O)c1)c1cccc(Br)c1 , please.
< 670 µg/mL

====

assay notes: Cytotoxicity against HUVEC assessed as growth inhibition after 48 hrs by SRB assay
Format: cell-based
condition set: human, HUVEC cells
measurement kind: GI50 at 48 h (µM)
All answers are understood in µM, so give the number only.

Recorded GI50 at 48 h of NC(=S)N/N=C(/c1cccc(Br)c1)c1cccc(OP(=O)([O-])[O-])c1.[Na+].[Na+] , please.
20.2

====

Observed IC50, system Procathepsin L (Homo sapiens).

Completed entries (count: 3):
{"columns": ["query smiles", "measurement kind", "reported"],
 "data": [
  ["COc1cc(OC)cc(/C(=N\\NC(N)=S)c2cccc(Br)c2)c1", "IC50", "> 10 µM"],
  ["COc1cc(OC)cc(/C(=N\\NC(N)=S)c2cc(Br)cc(Br)c2)c1", "IC50", "≥ 10 µM"],
  ["NC(=S)N/N=C(\\c1cc(O)cc(O)c1)c1cccc(Br)c1", "IC50", "≥ 10 µM"]
]}

Recorded IC50 of NC(=S)N/N=C(/c1cccc(Br)c1)c1cccc(OP(=O)([O-])[O-])c1.[Na+].[Na+] , please.
> 10 µM

====

tested on: Procathepsin L (Homo sapiens)
assay notes: Inhibition of human liver cathepsin-L at 10 uM using Z-FR-AMC as substrate preincubated for 5 mins followed by substrate addition measured at 15 sec interval for 5 mins in presence of 0.01% Brij35 by fluorometric method relative to control
Sequence (P07711 114-333 limits assumed): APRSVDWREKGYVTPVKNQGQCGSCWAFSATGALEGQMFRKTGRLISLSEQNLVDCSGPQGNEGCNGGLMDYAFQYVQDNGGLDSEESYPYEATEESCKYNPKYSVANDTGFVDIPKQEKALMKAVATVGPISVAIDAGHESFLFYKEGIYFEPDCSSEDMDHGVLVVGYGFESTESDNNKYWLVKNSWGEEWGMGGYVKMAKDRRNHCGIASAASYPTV
measurement kind: inhibition (%)

1. NC(=S)N/N=C(\c1cc(O)cc(O)c1)c1cccc(Br)c1
2. COc1cc(OC)cc(/C(=N\NC(N)=S)c2cccc(Br)c2)c1
3. NC(=S)N/N=C(\c1cccc(O)c1)c1cc(Br)cc(Br)c1
Please list the entries, largest inhibition first. Submit the labels in the order that the ranking request calls for.
3, 2, 1

====

tested on: Procathepsin L (Homo sapiens)
assay notes: Inhibition of human liver cathepsin-L at 10 uM using Z-FR-AMC as substrate preincubated for 5 mins followed by substrate addition measured at 15 sec interval for 5 mins in presence of 0.01% Brij35 by fluorometric method relative to control
measurement kind: inhibition (%)

{"columns": ["query smiles", "tested on", "inhibition [%]"],
 "data": [
  ["NC(=S)NN=C(c1cc(O)cc(Br)c1)c1cc(O)cc(Br)c1", "Procathepsin L (Homo sapiens)", 40],
  ["NC(=S)N/N=C(\\c1cc(O)cc(O)c1)c1cc(Br)cc(Br)c1", "Procathepsin L (Homo sapiens)", 44],
  ["COc1cc(OC)cc(/C(=N\\NC(N)=S)c2cc(Br)cc(Br)c2)c1", "Procathepsin L (Homo sapiens)", 52],
  ["NC(=S)N/N=C(/c1cccc(Br)c1)c1cccc(OP(=O)([O-])[O-])c1.[Na+].[Na+]", "Procathepsin L (Homo sapiens)", 18]
]}
